Here, each record is paired with measured IC50 data.
assay_procedure: Cytotoxicity testing (MTT)
Type: cell-based, human
condition_summary: human, HepG2 cells (hepatocellular carcinoma cell line)
I'd appreciate it if you included the unit after the number.

| molecule | IC50 |
| --- | --- |
| S=C(N/N=C/c1ccc(Br)cn1)Nc1ccc(Br)cc1 [Compound 19k] | 28 µg/mL |

Query block: Provide measured IC50 value, entry: C/C(=N\NC(=S)Nc1ccc(Br)cc1)c1ccccn1 [Compound 19t]
Result block: 1.39 µg/mL

Query block: Provide measured IC50 value, entry: C/C(=N\NC(=S)N(C)C)c1ccccn1 [Compound 19ak]
Result block: 10.3 µg/mL
